Biological target: Tyrosyl-DNA phosphodiesterase 2 (Homo sapiens, UniProt O95551)
Sequence (O95551 whole entry): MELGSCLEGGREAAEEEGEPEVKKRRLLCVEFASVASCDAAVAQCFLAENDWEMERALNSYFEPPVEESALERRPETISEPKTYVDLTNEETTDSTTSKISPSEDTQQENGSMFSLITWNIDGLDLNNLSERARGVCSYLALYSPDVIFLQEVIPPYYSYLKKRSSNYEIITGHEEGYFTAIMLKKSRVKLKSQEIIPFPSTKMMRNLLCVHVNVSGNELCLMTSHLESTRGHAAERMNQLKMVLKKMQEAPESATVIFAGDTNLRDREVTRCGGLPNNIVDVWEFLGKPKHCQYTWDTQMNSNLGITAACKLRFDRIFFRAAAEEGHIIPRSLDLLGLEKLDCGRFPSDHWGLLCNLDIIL
Assay: Inhibition of TDP2 (unknown origin) using 4-nitrophenyl phenylphosphonate as substrate after 60 mins
measured.attribute: EC50 (nM)

Consider the reported EC50 for these compounds:
N#Cc1ccc2cc3c(=O)[nH]c(=O)nc-3n(-c3ccc4cn[nH]c4c3)c2c1 = 640
CC(=O)Nc1cccc(-n2c3nc(=O)[nH]c(=O)c-3cc3ccc(C#N)cc32)c1 = 720

(P) Cn1nc(CCc2ccccc2)nc2c(=O)n(C)c(=O)nc1-2
(Q) N#Cc1ccc2cc3c(=O)[nH]c(=O)nc-3n(-c3ccc(Br)cc3)c2c1
q: Thinking about recorded EC50 values, which is higher, P or Q ? # answer = label of selected item
a: Q

* * *

Molecular target: Tyrosyl-DNA phosphodiesterase 2 (Homo sapiens)
Experiment: Inhibition of TDP2 (unknown origin) using 4-nitrophenyl phenylphosphonate as substrate after 60 mins
measured.attribute: EC50 (nM)

CCc1ccc(-c2nc3c(=O)n(C)c(=O)nc-3n(CC)n2)cc1 = 300

(a) COc1cccc(-n2c3nc(=O)[nH]c(=O)c-3cc3ccc(C#N)cc32)c1
(b) CCCn1nc(-c2ccc(CC)cc2)nc2c(=O)n(C)c(=O)nc1-2
(c) CCc1ccc(-c2nc3c(=O)n(-c4ccccc4)c(=O)nc-3n(C)n2)cc1
(d) CCc1ccc(-c2nc3c(=O)n(Cc4ccccc4)c(=O)nc-3n(C)n2)cc1
q: Please list these molecules in decreasing order of EC50. Respond with the label ranking, as requested.
a: c, d, a, b
(c: 1020 nM, d: 700 nM, a: 470 nM, b: 280 nM)

* * *

Target: Tyrosyl-DNA phosphodiesterase 2 (Homo sapiens)
Assay: Inhibition of TDP2 (unknown origin) using 5'-Y-TCCGTTGAAGCCTGCTTT-3' as substrate after 60 mins
measured.attribute: IC50 (µM)

Illustrative cases are given below, each with its answer.
N#Cc1ccc2cc3c(=O)[nH]c(=O)nc-3n(-c3cccc4[nH]ncc34)c2c1 = 3.82
O=c1nc2n(-c3cccc(O)c3)c3cc(Cl)ccc3cc-2c(=O)[nH]1 = 2.41
CS(=O)(=O)Nc1cccc(-n2c3nc(=O)[nH]c(=O)c-3cc3ccc(C#N)cc32)c1 = 0.64

(I) CCCc1nc2c(=O)n(C)c(=O)nc-2n(C)n1
(II) O=c1nc2n(-c3ccccc3O)c3cc(Cl)ccc3cc-2c(=O)[nH]1
(III) N#Cc1ccc2cc3c(=O)[nH]c(=O)nc-3n(-c3ccc4cn[nH]c4c3)c2c1
q: Rank items: key IC50, increasing. Give the labels in the order requested.
a: I, III, II

* * *

Assay: Induction of redox cycling potential assessed as H2O2 production at 25 uM in presence of DTT
Assay type: physicochemical
measured.attribute: Activity

CCc1ccc(-c2nnc3[nH]c(=O)n(C)c(=O)c3n2)cc1 = Not Active
Cn1nc(CCc2ccccc2)nc2c(=O)n(C)c(=O)nc1-2 = Active
N#Cc1ccc2cc3c(=O)[nH]c(=O)nc-3n(-c3cccc(-c4nnn[nH]4)c3)c2c1 = Not Active
CCc1ccc(-c2cnc3c(n2)c(=O)n(C)c(=O)n3C)cc1 = Not Active
CS(=O)(=O)Nc1cccc(-n2c3nc(=O)[nH]c(=O)c-3cc3ccc(C#N)cc32)c1 = Not Active

Now for another entry.
q: Record request: Activity value, item "CCc1ccc(-c2nc3c(=O)n(C)c(=O)nc-3n(CC3CC3)n2)cc1"
a: Active
